- assay-target: Protein translocase subunit SecA 1 (Staphylococcus aureus (strain NCTC 8325))
- Sequence (O06446 whole entry): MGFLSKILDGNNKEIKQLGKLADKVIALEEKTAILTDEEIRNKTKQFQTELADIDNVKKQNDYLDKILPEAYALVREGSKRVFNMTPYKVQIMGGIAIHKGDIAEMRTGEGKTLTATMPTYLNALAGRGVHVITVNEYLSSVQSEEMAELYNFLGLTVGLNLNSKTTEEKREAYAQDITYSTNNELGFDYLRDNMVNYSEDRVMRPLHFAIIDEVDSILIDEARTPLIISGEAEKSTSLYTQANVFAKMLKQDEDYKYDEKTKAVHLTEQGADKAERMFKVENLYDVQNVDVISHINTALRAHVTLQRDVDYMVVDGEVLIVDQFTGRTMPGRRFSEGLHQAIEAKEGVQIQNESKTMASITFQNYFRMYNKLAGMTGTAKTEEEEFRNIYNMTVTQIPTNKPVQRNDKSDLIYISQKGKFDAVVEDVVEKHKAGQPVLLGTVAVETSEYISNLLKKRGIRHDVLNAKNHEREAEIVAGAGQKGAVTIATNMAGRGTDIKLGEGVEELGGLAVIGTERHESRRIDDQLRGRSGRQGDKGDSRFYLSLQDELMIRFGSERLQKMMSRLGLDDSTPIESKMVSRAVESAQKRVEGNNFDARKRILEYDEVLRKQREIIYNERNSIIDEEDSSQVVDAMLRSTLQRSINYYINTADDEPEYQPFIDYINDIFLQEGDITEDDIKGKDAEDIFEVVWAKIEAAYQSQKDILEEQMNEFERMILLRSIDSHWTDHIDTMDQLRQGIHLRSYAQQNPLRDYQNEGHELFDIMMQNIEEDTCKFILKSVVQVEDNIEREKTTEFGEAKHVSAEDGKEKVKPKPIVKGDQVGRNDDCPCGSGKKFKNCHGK
- measurement-notes: Inhibition of Staphylococcus aureus ATCC 35556 SecA1 liposome dependent proOmpA translocation incubated for 1.5 hrs measured by Western blot analysis
experimental-endpoint: IC50
Answer with the number, then the unit.

**Q:** Retrieve IC50 measured for CCCCCCC1c2ccc(O)cc2Oc2cc(O)ccc21 and print it.
**A:** 4 µM

* * *

- assay-target: Protein translocase subunit SecA 2 (Staphylococcus aureus (strain NCTC 8325), UniProt Q2FUW6)
- Sequence (Q2FUW6 whole entry): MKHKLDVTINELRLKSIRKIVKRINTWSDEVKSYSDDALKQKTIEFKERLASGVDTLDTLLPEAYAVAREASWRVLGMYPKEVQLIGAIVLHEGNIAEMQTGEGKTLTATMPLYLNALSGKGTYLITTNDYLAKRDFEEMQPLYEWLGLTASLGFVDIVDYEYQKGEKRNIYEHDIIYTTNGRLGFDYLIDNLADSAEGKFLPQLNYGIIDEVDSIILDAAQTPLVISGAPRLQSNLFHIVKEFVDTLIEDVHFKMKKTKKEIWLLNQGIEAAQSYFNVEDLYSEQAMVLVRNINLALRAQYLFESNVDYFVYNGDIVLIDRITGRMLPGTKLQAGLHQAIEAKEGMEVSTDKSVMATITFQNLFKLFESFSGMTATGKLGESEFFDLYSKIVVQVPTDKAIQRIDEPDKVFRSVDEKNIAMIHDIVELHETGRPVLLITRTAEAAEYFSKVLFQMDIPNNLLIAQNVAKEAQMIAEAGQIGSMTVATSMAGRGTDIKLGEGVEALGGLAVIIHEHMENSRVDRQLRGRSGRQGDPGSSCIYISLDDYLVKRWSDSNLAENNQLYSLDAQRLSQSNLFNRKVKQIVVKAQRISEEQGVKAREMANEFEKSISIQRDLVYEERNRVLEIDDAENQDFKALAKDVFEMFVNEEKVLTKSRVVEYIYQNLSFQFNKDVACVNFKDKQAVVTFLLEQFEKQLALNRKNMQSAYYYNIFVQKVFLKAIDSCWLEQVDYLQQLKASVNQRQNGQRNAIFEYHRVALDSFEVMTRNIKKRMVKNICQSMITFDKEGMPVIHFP
- measurement-notes: Inhibition of Staphylococcus aureus ATCC 35556 SecA2 expressed in Escherichia coli BL21-gammaDE3 assessed as reduction in intrinsic ATPase activity incubated for 3 hrs measured by malachite green colorimetric method
experimental-endpoint: IC50 (µM)
State the answer as a number, implicitly in µM.

**Q:** Complete the entry with IC50 for CCCCCCC1c2ccc(O)cc2Oc2cc(O)ccc21
**A:** 15

**Q:** Please look at this molecule and report its IC50: Oc1ccc2c(c1)Oc1cc(O)ccc1C2C1CCCC1
**A:** 30

**Q:** For O=C([O-])c1c(Cl)c(Cl)c(Cl)c(Cl)c1-c1c2cc(I)c(=O)c(I)c-2oc2c(I)c([O-])c(I)cc12.[Na+].[Na+] [ROSE BENGAL SODIUM] , write its IC50.
**A:** 2

* * *

Exercise: state measured IC50 for each of the molecules provided.
- assay-target: Protein translocase subunit SecA 1 (Staphylococcus aureus (strain NCTC 8325))
- Sequence (O06446 whole entry): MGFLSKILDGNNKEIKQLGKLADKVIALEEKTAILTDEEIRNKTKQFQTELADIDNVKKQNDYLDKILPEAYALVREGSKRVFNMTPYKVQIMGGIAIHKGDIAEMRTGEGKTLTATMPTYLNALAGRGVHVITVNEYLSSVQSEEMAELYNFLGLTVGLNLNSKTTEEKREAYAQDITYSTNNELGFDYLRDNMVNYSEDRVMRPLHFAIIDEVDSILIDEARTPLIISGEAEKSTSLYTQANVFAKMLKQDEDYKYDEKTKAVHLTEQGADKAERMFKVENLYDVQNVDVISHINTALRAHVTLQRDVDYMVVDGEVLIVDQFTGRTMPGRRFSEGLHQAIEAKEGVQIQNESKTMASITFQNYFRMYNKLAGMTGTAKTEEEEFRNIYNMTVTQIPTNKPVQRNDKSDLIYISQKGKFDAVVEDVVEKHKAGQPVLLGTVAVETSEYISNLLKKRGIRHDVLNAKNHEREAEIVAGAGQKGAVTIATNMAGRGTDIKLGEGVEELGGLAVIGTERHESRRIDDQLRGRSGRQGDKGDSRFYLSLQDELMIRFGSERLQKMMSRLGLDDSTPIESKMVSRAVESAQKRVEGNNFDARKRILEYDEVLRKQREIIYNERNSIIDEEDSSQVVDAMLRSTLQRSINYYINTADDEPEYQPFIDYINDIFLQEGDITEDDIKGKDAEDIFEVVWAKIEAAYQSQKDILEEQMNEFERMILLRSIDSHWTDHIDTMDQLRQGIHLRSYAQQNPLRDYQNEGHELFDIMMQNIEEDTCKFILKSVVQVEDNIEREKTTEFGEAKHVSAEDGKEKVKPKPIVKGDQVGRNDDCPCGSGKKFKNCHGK
- measurement-notes: Inhibition of Staphylococcus aureus ATCC 35556 SecA1 liposomal ion channel activity in Xenopus laevis oocytes incubated for 3 hrs measured by recording ion current for 1 min
- Assay type: cell-based
Give your result in nM as a bare value.

**Q:** Note IC50 for the molecule shown: Oc1ccc2c(c1)Oc1cc(O)ccc1C2C1CCCC1
**A:** 2000

**Q:** Note down IC50 recorded for CCCCCCC1c2ccc(O)cc2Oc2cc(O)ccc21
**A:** 1000

* * *

- Tested on: Staphylococcus aureus
- measurement-notes: Bacteriostatic activity against Staphylococcus aureus Mu50 after 24 hrs
- Assay type: functional
- condition-description: Mu50, 24 h
experimental-endpoint: MIC (µg/mL)
Report only the number, with the unit µg/mL understood.

**Q:** Name the recorded MIC of the item CCn1cc(C(=O)O)c(=O)c2cc(F)c(N3CCNCC3)cc21 in your answer.
**A:** 250

**Q:** Answer with the recorded MIC for the compound listed here: CCCCCCC1c2ccc(O)cc2Oc2cc(O)ccc21
**A:** 4

**Q:** Indicate the recorded MIC value for this compound: CN[C@@H](CC(C)C)C(=O)N[C@H]1C(=O)N[C@@H](CC(N)=O)C(=O)N[C@H]2C(=O)N[C@H]3C(=O)N[C@H](C(=O)N[C@@H](C(=O)O)c4cc(O)cc(O)c4-c4cc3ccc4O)[C@H](O)c3ccc(c(Cl)c3)Oc3cc2cc(c3O[C@H]2O[C@@H](CO)[C@H](O)[C@@H](O)[C@@H]2O[C@@H]2C[C@@](C)(N)[C@@H](O)[C@@H](C)O2)Oc2ccc(cc2Cl)[C@H]1O
**A:** 8

**Q:** Specify measured MIC for NC[C@H]1O[C@H](O[C@H]2[C@H](O)[C@@H](O[C@H]3O[C@H](CO)[C@@H](O)[C@H](N)[C@H]3O)[C@H](N)C[C@@H]2N)[C@H](O)[C@@H](O)[C@@H]1O .
**A:** 1000

**Q:** Annotate the compound CC1(C)S[C@@H]2[C@H](NC(=O)[C@H](N)c3ccccc3)C(=O)N2[C@H]1C(=O)O with its measured MIC.
**A:** 1000

**Q:** State its MIC: CN(C)[C@@H]1C(O)=C(C(N)=O)C(=O)[C@@]2(O)C(O)=C3C(=O)c4c(O)cccc4[C@@](C)(O)[C@H]3C[C@@H]12
**A:** 63

**Q:** Please give measured MIC of the following entry: Oc1ccc2c(c1)Oc1cc(O)ccc1C2C1CCCC1
**A:** 14
